# conditionContext: male, Swiss Webster, mouse, whole blood, po, 0.3 mg/kg
measurementKind: Tmax
Number first, unit second.

**Query** Given the entry O=C(Nc1ccc(OC(F)(F)F)cc1)N[C@H]1CC[C@H](Oc2ccc(C(=O)O)cc2)CC1 [t-TUCB] , report its measured Tmax.
**Result** 6 h

----------
# conditionContext: male, Swiss Webster, mouse, whole blood, po, 1 mg/kg
Recorded Cmax, one value per entry.
# value in nM; strip the unit string

{"smilesStr": "O=C(Nc1ccc(OC(F)(F)F)cc1)N[C@H]1CC[C@H](Oc2ccc(C(=O)O)cc2)CC1", "Cmax / nM": 410}

**Query** Given the entry CS(=O)(=O)N1CCC(NC(=O)Nc2ccc(OC(F)(F)F)cc2)CC1 , report its measured Cmax.
**Result** 1650

----------
# conditionContext: male, Swiss Webster, mouse, whole blood, po, 1 mg/kg
Recorded MRT, one value per entry.
# value in h; strip the unit string

{"smilesStr": "CS(=O)(=O)N1CCC(NC(=O)Nc2ccc(OC(F)(F)F)cc2)CC1", "measurementKind": "MRT", "unitsSymbol": "h", "numericReadout": 17.4}

We next turn to a different compound, shown below.
**Query** Given the entry O=C(Nc1ccc(OC(F)(F)F)cc1)N[C@H]1CC[C@H](Oc2ccc(C(=O)O)cc2)CC1 , report its measured MRT.
**Result** 12.6

----------
# conditionContext: mice, oral gavage 0.3 mg/kg, blood
Recorded Cmax, one value per entry.

{"smilesStr": "CCC(=O)N1CCC(NC(=O)Nc2ccc(OC(F)(F)F)cc2)CC1", "Cmax": "1.56 µM"}

We next turn to a different compound, shown below.
**Query** Given the entry O=C(Nc1ccc(OC(F)(F)F)cc1)NC1CCN(C(=O)C2CC2)CC1 , report its measured Cmax.
**Result** 1.68 µM

----------
# conditionContext: male, Swiss Webster, mouse, whole blood, po, 1 mg/kg
Recorded AUC(0-t), one value per entry.
# value in µM·h; strip the unit string

{"compound": "O=C(Nc1ccc(OC(F)(F)F)cc1)N[C@H]1CC[C@H](Oc2ccc(C(=O)O)cc2)CC1 [t-TUCB]", "unitsSymbol": "µM·h", "AUC(0-t)": 4.5}

**Query** Given the entry CS(=O)(=O)N1CCC(NC(=O)Nc2ccc(OC(F)(F)F)cc2)CC1 [TUPS] , report its measured AUC(0-t).
**Result** 24.2

----------
# conditionContext: male, Swiss Webster, mouse, whole blood, po, 0.3 mg/kg
measurementKind: Cmax (nM)
# value in nM; strip the unit string

**Query** Given the entry O=C(Nc1ccc(OC(F)(F)F)cc1)N[C@H]1CC[C@H](Oc2ccc(C(=O)O)cc2)CC1 , report its measured Cmax.
**Result** 45

----------
# conditionContext: male, Swiss Webster, mouse, whole blood, po, 1 mg/kg
measurementKind: Tmax (h)
# value in h; strip the unit string

**Query** Given the entry O=C(Nc1ccc(OC(F)(F)F)cc1)N[C@H]1CC[C@H](Oc2ccc(C(=O)O)cc2)CC1 [t-TUCB] , report its measured Tmax.
**Result** 5.9

----------
# conditionContext: male, Swiss Webster, mouse, whole blood, po, 0.3 mg/kg
measurementKind: MRT
Number first, unit second.

{"smilesStr": "CS(=O)(=O)N1CCC(NC(=O)Nc2ccc(OC(F)(F)F)cc2)CC1", "MRT": "21.5 h"}

**Query** Given the entry O=C(Nc1ccc(OC(F)(F)F)cc1)N[C@H]1CC[C@H](Oc2ccc(C(=O)O)cc2)CC1 , report its measured MRT.
**Result** 12.6 h

----------
# conditionContext: male, Swiss Webster, mouse, whole blood, po, 3 mg/kg
Recorded MRT, one value per entry.

{"compound": "CS(=O)(=O)N1CCC(NC(=O)Nc2ccc(OC(F)(F)F)cc2)CC1 [TUPS]", "measurementKind": "MRT", "result": "22.7 h"}

**Query** Given the entry O=C(Nc1ccc(OC(F)(F)F)cc1)N[C@H]1CC[C@H](Oc2ccc(C(=O)O)cc2)CC1 [t-TUCB] , report its measured MRT.
**Result** 8 h

----------
# conditionContext: male, Swiss Webster, mouse, whole blood, po, 0.1 mg/kg
Recorded Cmax, one value per entry.

{"smilesStr": "O=C(Nc1ccc(OC(F)(F)F)cc1)N[C@H]1CC[C@H](Oc2ccc(C(=O)O)cc2)CC1", "measurementKind": "Cmax", "result": "< 0.4 nM"}

We next turn to a different compound, shown below.
**Query** Given the entry CS(=O)(=O)N1CCC(NC(=O)Nc2ccc(OC(F)(F)F)cc2)CC1 , report its measured Cmax.
**Result** < 0.4 nM

----------
# conditionContext: male, Swiss Webster, mouse, whole blood, po, 3 mg/kg
Recorded AUC(0-t), one value per entry.
# value in µM·h; strip the unit string

{"smilesStr": "CS(=O)(=O)N1CCC(NC(=O)Nc2ccc(OC(F)(F)F)cc2)CC1", "AUC(0-t), µM·h": 48.5}

We next turn to a different compound, shown below.
**Query** Given the entry O=C(Nc1ccc(OC(F)(F)F)cc1)N[C@H]1CC[C@H](Oc2ccc(C(=O)O)cc2)CC1 , report its measured AUC(0-t).
**Result** 16.1

----------
# conditionContext: mice, oral gavage 1.0 mg/kg, blood
measurementKind: Cmax (µM)
# value in µM; strip the unit string

{"compound": "O=C(Nc1ccc(OC(F)(F)F)cc1)NC1CCN(C(=O)C2CC2)CC1 [TCPU]", "Cmax (µM)": 2.56}

We next turn to a different compound, shown below.
**Query** Given the entry CCC(=O)N1CCC(NC(=O)Nc2ccc(OC(F)(F)F)cc2)CC1 [TPPU] , report its measured Cmax.
**Result** 5.37

Source listed as paper PMC3596469.
